Ref: patent US20240043394A1

# target: purified human 20S proteasome, T-L site (Homo sapiens, UniProt P25787+P60900)
# Construct: purchased Boston Biochem or Life Sensors E-360 or ps020
# run description: 20S proteasome small peptide assay, Boc-LRR-AMC trypsin-like probe
# Assay type: biochemical
# run conditions: maximum fold rate increase vs vehicle
measured endpoint: Max Fold T-L site (fold)

// solved cases for Max Fold T-L site follow
O=[N+]([O-])c1cccc(CN2c3ccccc3Sc3ccc(Cl)cc32)c1    8
O=C(C=CN1c2ccccc2Sc2ccc(Cl)cc21)Nc1ccccc1    2

P. O=C(CCN1c2ccccc2Sc2ccc(Cl)cc21)N(c1ccc(F)cc1)c1ccc(F)cc1
Q. Clc1ccc2c(c1)N(Cc1ccccc1)c1ccccc1S2 [Compound 1, 10-Benzyl-2-chloro-10H-phenothiazine]
For P and Q , which recorded Max Fold T-L site is lower? # reply format: chosen label
Q

---

Listed here are molecules together with their documented AC200 Casp-L site.
# target: purified human 20S proteasome, Casp-L site (Homo sapiens, UniProt P25787+P60900)
# Construct: purchased Boston Biochem or Life Sensors E-360 or ps020
# run description: 20S proteasome small peptide assay, Z-LLE-AMC caspase-like probe
# Assay type: biochemical
# run conditions: concentration needed to double rate vs vehicle

// solved cases for AC200 Casp-L site follow
N#CCCCCN1c2ccccc2Sc2ccc(Cl)cc21    >80 µM
COc1cccc(CN2c3ccccc3Sc3ccc(Cl)cc32)c1    1.3 µM

Recorded AC200 Casp-L site of O=[N+]([O-])c1cccc(CN2c3ccccc3Sc3ccc(Cl)cc32)c1 , please.
1.2 µM

---

# target: purified human 20S proteasome, T-L site (Homo sapiens, UniProt P25787+P60900)
# Construct: purchased Boston Biochem or Life Sensors E-360 or ps020
# run description: 20S proteasome small peptide assay, Boc-LRR-AMC trypsin-like probe
# Assay type: biochemical
# run conditions: concentration needed to double rate vs vehicle
Listed here are molecules together with their documented AC200 T-L site.

NC(=O)C=CN1c2ccccc2Sc2ccc(Cl)cc21 [Compound 15]    >80 µM
Nc1cccc(CN2c3ccccc3Sc3ccc(Cl)cc32)c1 [Compound 9]    9.2 µM
CN(C)CCCN1c2ccccc2Sc2ccc(Cl)cc21 [CPZ, chlorpromazine, reference compound]    >80 µM

Item CN(C)C(=O)CCN1c2ccccc2Sc2ccc(Cl)cc21 [Compound 16] with purified human 20S proteasome, T-L site (Homo sapiens, UniProt P25787+P60900) - AC200 T-L site?
>80 µM

Item O=C(C=CN1c2ccccc2Sc2ccc(Cl)cc21)Nc1ccccc1 [Compound 17] with purified human 20S proteasome, T-L site (Homo sapiens, UniProt P25787+P60900) - AC200 T-L site?
80 µM

Item CC(C)(C)OC(=O)c1ccc(CN2c3ccccc3Sc3ccc(Cl)cc32)cc1 [Compound 3] with purified human 20S proteasome, T-L site (Homo sapiens, UniProt P25787+P60900) - AC200 T-L site?
>80 µM

---

# target: purified human 20S proteasome, Casp-L site (Homo sapiens, UniProt P25787+P60900)
# Construct: purchased Boston Biochem or Life Sensors E-360 or ps020
# run description: 20S proteasome small peptide assay, Z-LLE-AMC caspase-like probe
# Format: biochemical
# run conditions: concentration needed to double rate vs vehicle
measured endpoint: AC200 Casp-L site

// solved cases for AC200 Casp-L site follow
O=C(C=CN1c2ccccc2Sc2ccc(Cl)cc21)Nc1ccccc1 [Compound 17]    >80 µM
COC(=O)c1cccc(CN2c3ccccc3Sc3ccc(Cl)cc32)c1 [Compound 5]    9.7 µM

Recorded AC200 Casp-L site of NC(=O)C=CN1c2ccccc2Sc2ccc(Cl)cc21 [Compound 15] , please.
>80 µM

Recorded AC200 Casp-L site of CC(C)(C)OC(=O)c1ccc(CN2c3ccccc3Sc3ccc(Cl)cc32)cc1 [Compound 3] , please.
>80 µM

Recorded AC200 Casp-L site of Nc1cccc(CN2c3ccccc3Sc3ccc(Cl)cc32)c1 [Compound 9] , please.
3.8 µM

Recorded AC200 Casp-L site of Clc1ccc2c(c1)N(Cc1ccccc1)c1ccccc1S2 [Compound 1, 10-Benzyl-2-chloro-10H-phenothiazine] , please.
>80 µM

---

# target: purified human 20S proteasome, T-L site (Homo sapiens, UniProt P25787+P60900)
# Construct: purchased Boston Biochem or Life Sensors E-360 or ps020
# run description: 20S proteasome small peptide assay, Boc-LRR-AMC trypsin-like probe
# Format: biochemical
# run conditions: concentration needed to double rate vs vehicle
measured endpoint: AC200 T-L site (µM)

COc1cccc(CN2c3ccccc3Sc3ccc(Cl)cc32)c1    5.4
COC(=O)c1cccc(CN2c3ccccc3Sc3ccc(Cl)cc32)c1    1.9

I. Clc1ccc2c(c1)N(Cc1ccccc1)c1ccccc1S2 [Compound 1, 10-Benzyl-2-chloro-10H-phenothiazine]
II. O=[N+]([O-])c1cccc(CN2c3ccccc3Sc3ccc(Cl)cc32)c1
III. O=C(CCN1c2ccccc2Sc2ccc(Cl)cc21)N(c1ccc(F)cc1)c1ccc(F)cc1
Put these in order: smallest AC200 T-L site first, largest last. # output: labels, in the requested order
III, II, I
(III: 0.3 µM, II: 1.6 µM, I: 3.1 µM)

---

# target: purified human 20S proteasome, Casp-L site (Homo sapiens, UniProt P25787+P60900)
# Construct: purchased Boston Biochem or Life Sensors E-360 or ps020
# run description: 20S proteasome small peptide assay, Z-LLE-AMC caspase-like probe
# Format: biochemical
# run conditions: maximum fold rate increase vs vehicle
measured endpoint: Max Fold Casp-L site (fold)

O=[N+]([O-])c1cccc(CN2c3ccccc3Sc3ccc(Cl)cc32)c1    12
COC(=O)c1cccc(CN2c3ccccc3Sc3ccc(Cl)cc32)c1    4
Nc1cccc(CN2c3ccccc3Sc3ccc(Cl)cc32)c1    10

1. COc1cccc(CN2c3ccccc3Sc3ccc(Cl)cc32)c1
2. O=C(CCN1c2ccccc2Sc2ccc(Cl)cc21)N(c1ccc(F)cc1)c1ccc(F)cc1
For 1 and 2 , which recorded Max Fold Casp-L site is lower? # reply format: chosen label
1

---

# target: purified human 20S proteasome, T-L site (Homo sapiens, UniProt P25787+P60900)
# Construct: purchased Boston Biochem or Life Sensors E-360 or ps020
# run description: 20S proteasome small peptide assay, Boc-LRR-AMC trypsin-like probe
# Type: biochemical
# run conditions: maximum fold rate increase vs vehicle
measured endpoint: Max Fold T-L site (fold)

Nc1cccc(CN2c3ccccc3Sc3ccc(Cl)cc32)c1    10

1. COC(=O)c1cccc(CN2c3ccccc3Sc3ccc(Cl)cc32)c1
2. COc1cccc(CN2c3ccccc3Sc3ccc(Cl)cc32)c1
For 1 and 2 , which recorded Max Fold T-L site is lower? # reply format: chosen label
2

---

# target: purified human 20S proteasome (Homo sapiens, UniProt P25787+P60900)
# Construct: purchased Boston Biochem or Life Sensors E-360 or ps020
# run description: 20S proteasome small peptide assay, combination of all three fluorogenic substrates (CT-L/Casp-L/T-L)
# Type: biochemical
# run conditions: maximum fold rate increase vs vehicle control; three probes combined
measured endpoint: Max Fold CT-L/Casp-L/T-L (fold)

O=C(CCN1c2ccccc2Sc2ccc(Cl)cc21)N(c1ccc(F)cc1)c1ccc(F)cc1 [Compound 19]    11
Nc1cccc(CN2c3ccccc3Sc3ccc(Cl)cc32)c1 [Compound 9]    8
COC(=O)c1cccc(CN2c3ccccc3Sc3ccc(Cl)cc32)c1 [Compound 5]    6
O=C(C=CN1c2ccccc2Sc2ccc(Cl)cc21)Nc1ccccc1 [Compound 17]    2.5
CN(C(=O)CCN1c2ccccc2Sc2ccc(Cl)cc21)c1ccc(F)cc1 [Compound 18]    3

A. O=[N+]([O-])c1cccc(CN2c3ccccc3Sc3ccc(Cl)cc32)c1 [Compound 7]
B. Clc1ccc2c(c1)N(Cc1ccccc1)c1ccccc1S2 [Compound 1, 10-Benzyl-2-chloro-10H-phenothiazine]
C. COc1cccc(CN2c3ccccc3Sc3ccc(Cl)cc32)c1 [Compound 4]
Returns the items ordered by Max Fold CT-L/Casp-L/T-L, from maximum to minimum. # output: labels, in the requested order
A, C, B
(A: 8 fold, C: 4 fold, B: 2 fold)

---

# target: purified human 20S proteasome, CT-L site (Homo sapiens, UniProt P25787+P60900)
# Construct: purchased Boston Biochem or Life Sensors E-360 or ps020
# run description: 20S proteasome small peptide assay, Suc-LLVY-AMC chymotryptic-like probe
# Type: biochemical
# run conditions: maximum fold rate increase vs vehicle
measured endpoint: Max Fold CT-L site (fold)

// solved cases for Max Fold CT-L site follow
Nc1cccc(CN2c3ccccc3Sc3ccc(Cl)cc32)c1    9
O=[N+]([O-])c1cccc(CN2c3ccccc3Sc3ccc(Cl)cc32)c1    9
O=C(CCN1c2ccccc2Sc2ccc(Cl)cc21)N(c1ccc(F)cc1)c1ccc(F)cc1    9.4
COC(=O)c1cccc(CN2c3ccccc3Sc3ccc(Cl)cc32)c1    6

1. CN(C)CCCN1c2ccccc2Sc2ccc(Cl)cc21 [CPZ, chlorpromazine, reference compound]
2. Clc1ccc2c(c1)N(Cc1ccccc1)c1ccccc1S2 [Compound 1, 10-Benzyl-2-chloro-10H-phenothiazine]
For 1 and 2 , which recorded Max Fold CT-L site is lower? # reply format: chosen label
2
(2: 3 fold, 1: 8 fold)
